target.system: human GPC3 (Glypican-3) (human, UniProt P51654 25-580)
run.description: cell-based or functional assay
readout.kind: EC50 value of cytotoxicity, Huh7 cells (96 h, PrestoBlue) (ng/mL)
Return type: number; implicit unit ng/mL.

Worked examples follow.
INSERT INTO assay_data (binder, units_label, recorded_result) VALUES
  ('Hu 52H5D3B8-7-L4-D4 (antibody, human IgG1, kappa, V domains shown, MC-MMAF (L4-D4) on cysteine thiols freed by TCEP reduction of disulfide bonds; positions not given) VH: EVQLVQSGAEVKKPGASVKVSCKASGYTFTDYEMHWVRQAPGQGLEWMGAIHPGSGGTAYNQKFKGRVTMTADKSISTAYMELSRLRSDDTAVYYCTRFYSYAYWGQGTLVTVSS VL: DVVMTQTPLSLSVTPGQPASISCRSSQSLVHSNGNTYLQWYLQKPGQSPQLLIYKVSNRFSGVPDRFSGSGSGTDFTLKISRVEAEDVGVYYCSQSIHVPYTFGGGTKVEIKR', 'ng/mL', 4.55),
  ('GC33-L4-D4 (antibody, V domains shown, MC-MMAF (L4-D4) on cysteine thiols of the antibody freed by TCEP reduction of disulfide bonds; positions not given, Whole antibody; also called GC33 ADC; Anti-GPC3-L4-D4) VH: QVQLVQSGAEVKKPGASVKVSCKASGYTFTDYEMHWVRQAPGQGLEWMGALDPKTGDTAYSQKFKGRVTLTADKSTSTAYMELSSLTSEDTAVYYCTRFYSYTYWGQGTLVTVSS VL: DVVMTQSPLSLPVTPGEPASISCRSSQSLVHSNGNTYLHWYLQKPGQSPQLLIYKVSNRFSGVPDRFSGSGSGTDFTLKISRVEAEDVGVYYCSQNTHVPPTFGQGTKLEIK', 'ng/mL', 8.82);

Specify measured EC50 value of cytotoxicity, Huh7 cells (96 h, PrestoBlue) for Hu 52H5D3B8-8-ZLA (antibody, human IgG1, kappa, V domains shown, ZLA linker-payload on cysteine thiols freed by TCEP reduction of disulfide bonds; positions not given, Constant regions as for Hu 52H5D3B8-8; also called Hu 52H5D3B8-8 ADC; Anti-GPC3-ZLA) VH: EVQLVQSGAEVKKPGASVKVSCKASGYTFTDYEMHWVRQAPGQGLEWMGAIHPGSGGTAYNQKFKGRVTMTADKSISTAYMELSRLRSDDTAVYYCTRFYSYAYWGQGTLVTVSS VL: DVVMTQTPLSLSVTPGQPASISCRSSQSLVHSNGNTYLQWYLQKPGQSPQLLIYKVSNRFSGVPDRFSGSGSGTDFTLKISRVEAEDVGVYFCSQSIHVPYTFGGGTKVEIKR . 3.52
